Target: HLA-DR DRB1*0301 (DR3) (Homo sapiens, UniProt P01903+P01911, A100K/A102G/A103R/A169T/F55Y/I96L/K41T/L162R/M171V/P40S/Q125H/Q178H/Q39Y/R42S/S66N/T106N/T262R/W38E/Y61H)
Sequence (P01903 26-254 limits assumed, other chains not shown): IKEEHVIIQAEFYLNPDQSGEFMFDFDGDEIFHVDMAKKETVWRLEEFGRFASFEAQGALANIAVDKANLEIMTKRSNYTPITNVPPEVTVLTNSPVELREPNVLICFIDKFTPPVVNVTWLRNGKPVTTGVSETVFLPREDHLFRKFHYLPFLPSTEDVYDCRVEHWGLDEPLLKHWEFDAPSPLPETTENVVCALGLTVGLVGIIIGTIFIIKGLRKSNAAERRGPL
Test: biochemical
Format: binding
No end group written: not given here.
Entries and their measured pIC50 follow.
Give only the number. pIC50 is defined as minus log10 of concentration in molar units.

Study these solved cases before continuing.
SEQUENCE_CONTENT	NUMERIC_VALUE
LWWVNNESLPVSPRL	6.50
AVTIYEMLQNIFAIF	4.62
GVILYSDPADYFAPG	7.77
EMLQNIFAIFRQDSS	5.02

Reported pIC50 of CAWTIVRVEILRNFY : 5.45

Reported pIC50 of MSYNLLGFLQRSSNT : 3.97

Reported pIC50 of FLRIVQTRSVEGSTGF : 5.40

Reported pIC50 of QTQKLLWQLNGRLEY : 5.45
